method.notes: chemical genetic growth profiling, strain panel (AID 1159580);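 further: tested at 20 µM; growth read once vehicle control cultures reached saturation at 30 °C; lower values mean less growth of the strain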
condition.label: S. cerevisiae deletion strains, growth OD, locus YAL013W, strain DEP1
The whole screen tested about 5,500 compounds, of which about 2,000 (36%) were called active. Roughly 18% stayed inconclusive and do not appear here. No stated cut-off is given here; in the data, active means normalized growth mostly below about 0.91 (no sharp cut-off); inconclusive means no clear call, values can overlap the other calls; inactive means mostly above about 0.92. The list shows a part of the results.
Classes used: active, inactive

INSERT INTO assay_data (compound, classification) VALUES
  ('O=C(Nc1ccc(OC(F)(F)F)cc1)Nc1cccc(C(=O)O)c1', 'inactive'),
  ('C#CCOC(=O)C1=CCCN(C)C1', 'inactive'),
  ('COc1cc(C)c2c(=O)c3c(O)cc(OC)cc3oc2c1', 'inactive'),
  ('COC(CNc1cccc(Cl)c1C#N)OC', 'inactive'),
  ('Cc1ccc(Cl)cc1NC(=S)N(CCC#N)/N=C\c1ccc2c(c1)OCO2', 'inactive'),
  ('O=C(O)CN(CCN(CC(=O)O)CC(=O)O)CCN(CC(=O)O)CC(=O)O', 'active'),
  ('COc1ccc(-c2cc(=O)c3c(O)cc(O)cc3o2)cc1O', 'inactive'),
  ('CCOC(=O)C1C(=O)C=C(c2cccs2)CC1c1ccc(OC)c(OC)c1Cl (configuration not stated)', 'inactive'),
  ('NC(N)=NC(N)=Nc1cccc(Cl)c1', 'inactive'),
  ('Cc1cc(N)c2ccccc2[n+]1CCCCCCCCCCCCCC[n+]1c(C)cc(N)c2ccccc21', 'active'),
  ('COP(N)(=O)SC (configuration not stated)', 'inactive'),
  ('CCCc1nn(C)c2c(=O)[nH]c(-c3cc(S(=O)(=O)N4CCN(C)CC4)ccc3OCC)nc12', 'inactive'),
  ('CC1=CC(=O)C(C(C)C)=CC1=O', 'active'),
  ('OC[C@H]1O[C@@H](n2cnc3c(NC4CCCC4)ncnc32)C(O)[C@H]1O (some centres not stated)', 'inactive'),
  ('CCOC(=O)/C(C#N)=C/Nc1ccc2c(c1)OCO2', 'inactive'),
  ('Cc1cc(N)c2ccccc2[n+]1CCCCCCCCCC[n+]1c(C)cc(N)c2ccccc21', 'active'),
  ('CC1(C)[C@@H]2CC[C@@]1(C)C(=O)C2', 'inactive'),
  ('O=C(CCCN1CCC(O)(c2ccc(Cl)cc2)CC1)c1ccc(F)cc1', 'active'),
  ('N#Cc1c(Cl)cccc1N1CCC(C(=O)NC(=O)Nc2ccc(Cl)cc2)CC1', 'inactive'),
  ('NC(N)=NC(N)=Nc1cc(Cl)cc(Cl)c1', 'inactive'),
  ('CC(C)(C)C1=CC(=O)C=C(C(C)(C)C)C1=O', 'inactive'),
  ('CC1(C)S[C@@H]2[C@H](NC(=O)[C@@H](N)c3ccc(O)cc3)C(=O)N2[C@H]1C(=O)O', 'inactive');
